target: Large T antigen (Simian virus 40); experiment: SV40 large T antigen inhibitors, biochemical (AID 1903); conditions: SV40 large T antigen ATPase/helicase inhibition assay; at 20 µM; active compounds read high
Among all 310,000 compounds or so, about 1,200 (0.39%) were called active. Not all results are given here. Measured potencies and affinities stand elsewhere.
REPORTED_PROPERTY: inhibition (%)
Just the number in %, nothing appended.

Provide inhibition value for the following molecule: CC(=O)c1ccc2c(c1)C1C=CCC1C(c1ccncc1)N2 (stereo unspecified)
7.95

Provide inhibition value for the following molecule: `COc1cccc(/C=N/n2c(SC)nnc2-c2ccccc2)c1O`
26.3

Provide inhibition value for the following molecule: `COc1cc(/C=N/n2c(C3CCCCC3)n[nH]c2=S)cc(OC)c1O`
10.8

Provide inhibition value for the following molecule: O=C(OC1CCCCC1)c1ccc2c(c1)C1C=CCC1C(C(=O)O)N2 (stereo unspecified)
33.8

Provide inhibition value for the following molecule: `Cc1ccc(-n2c(SCC(=O)OC(C)C)nnc2-c2ccncc2)cc1`
9.08

Provide inhibition value for the following molecule: `COC(=O)CCc1ccc(O)cc1`
4.8

Provide inhibition value for the following molecule: `COc1ccc(C(=O)CCc2ccccc2)c(O)c1`
7.01

Provide inhibition value for the following molecule: CCOc1ccc(C2/C(=C(/O)c3ccc4c(c3)CC(C)O4)C(=O)C(=O)N2CCCn2ccnc2)cc1OCC (stereo unspecified)
2.21

Provide inhibition value for the following molecule: COc1cccc(NC(=O)c2cc([N+](=O)[O-])ccc2NC(=O)CNCC2CCCO2)c1 (stereo unspecified)
3.88

Provide inhibition value for the following molecule: `COc1cc(/C=N/n2c(-c3cc(C)[nH]n3)n[nH]c2=S)cc(OC)c1O`
24.5

Provide inhibition value for the following molecule: `COc1ccc(/C=N/n2c(-c3n[nH]c4c3CCC4)n[nH]c2=S)cc1OC`
23.9

###

I'd appreciate it if you could supply inhibition values for the items below.
biological target: Large T antigen (Simian virus 40) (UniProt P03070); assay: SV40 large T antigen inhibitors, biochemical (AID 1903); conditions: SV40 large T antigen ATPase/helicase inhibition assay; at 20 µM; active compounds read high
Sequence (P03070 whole entry, looked up): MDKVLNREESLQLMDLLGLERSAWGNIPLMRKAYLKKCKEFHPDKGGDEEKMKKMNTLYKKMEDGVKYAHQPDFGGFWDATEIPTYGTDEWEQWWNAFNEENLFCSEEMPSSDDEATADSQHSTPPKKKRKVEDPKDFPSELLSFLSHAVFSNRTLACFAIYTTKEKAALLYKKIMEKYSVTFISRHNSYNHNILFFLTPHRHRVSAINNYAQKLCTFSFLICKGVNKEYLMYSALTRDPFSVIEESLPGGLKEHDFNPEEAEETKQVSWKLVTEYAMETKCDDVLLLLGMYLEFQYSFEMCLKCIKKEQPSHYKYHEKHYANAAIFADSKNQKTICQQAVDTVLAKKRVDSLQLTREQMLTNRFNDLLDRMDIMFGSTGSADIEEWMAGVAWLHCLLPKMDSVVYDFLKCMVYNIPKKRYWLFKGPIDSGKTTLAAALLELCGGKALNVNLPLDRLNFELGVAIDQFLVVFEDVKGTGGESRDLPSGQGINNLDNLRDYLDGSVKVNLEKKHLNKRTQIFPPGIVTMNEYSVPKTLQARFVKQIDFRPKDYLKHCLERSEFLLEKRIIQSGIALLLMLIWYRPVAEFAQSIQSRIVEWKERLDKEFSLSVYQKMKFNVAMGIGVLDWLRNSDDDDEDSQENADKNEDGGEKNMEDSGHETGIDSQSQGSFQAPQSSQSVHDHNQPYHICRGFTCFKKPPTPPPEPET
Among all 310,000 compounds or so, about 1,200 (0.39%) were called active. Only a sample is shown. Potency and affinity values are given separately.
Just the number in %, nothing appended.

Provide inhibition value for the following compound: `COc1ccccc1NC(=S)N1CCN(c2cccc(C)c2C)CC1`
-4.85

Provide inhibition value for the following compound: `CCc1nnc(NC(=O)Cn2c(=O)oc3ccccc32)s1`
1.21

Provide inhibition value for the following compound: O=C(COC(=O)[C@@H]1CCCN1S(=O)(=O)c1ccc(Cl)cc1)NC1CCS(=O)(=O)C1 (stereo partly specified)
1.86

Provide inhibition value for the following compound: `Cc1cc(NC(=O)CSc2nnc3c(C)cc4ccccc4n23)no1`
23.4

Provide inhibition value for the following compound: CC1CC(C)(C)NC(=S)N1CCCC(=O)N1CCN(c2ccc(F)cc2)CC1 (stereo unspecified)
7.98

Provide inhibition value for the following compound: `C=CCCN(C1CCCC1)S(=O)(=O)c1ccccc1Br`
10.4

###

biological target: Large T antigen (Simian virus 40); experiment: SV40 large T antigen inhibitors, biochemical (AID 1903); details: SV40 large T antigen ATPase/helicase inhibition assay; at 20 µM; active compounds read high
In all, about 310,000 compounds went through this assay and about 1,200 (0.39%) were called active. The list is a sample of the results. Potency and affinity values are given separately.
REPORTED_PROPERTY: inhibition (%)
Just the number in %, nothing appended.

Provide inhibition value for the following compound: `CC1(C)CC(=O)C(C=Nc2ccccc2)=C(O)C1`
-6.01

Provide inhibition value for the following compound: `Oc1c(C=Nc2ccccc2)sc2ccccc12`
21.4

Provide inhibition value for the following compound: `O=C(COC(=O)c1ccccc1SCC(=O)N1CCCC1)NC1CCCCC1`
7.38

Provide inhibition value for the following compound: `O=C1NN(c2ccccc2)C(=O)/C1=C\c1ccccc1`
17.5

Provide inhibition value for the following compound: `CC(C)(C)NC(=O)NC(=O)CN1CCN(c2ccccc2)CC1`
-1

Provide inhibition value for the following compound: `COc1ccc(/C=C2\CCc3c2nc2ccccc2c3C(=O)O)cc1OC`
6.95

Provide inhibition value for the following compound: `COc1ccc(N=CC2=C(O)CCCC2=O)cc1`
18.6

Provide inhibition value for the following compound: O=C1CC(c2ccccc2)CC(O)=C1C=Nc1ccc(O)cc1 (configuration not stated)
30.3

Provide inhibition value for the following compound: `Cc1nn(C)c(C)c1NC(=O)CSc1nc(-c2ccccc2Cl)nc2c1cnn2-c1ccccc1`
8.57

Provide inhibition value for the following compound: `Cc1ccc(N=Cc2sccc2C)cc1C`
3.36

Provide inhibition value for the following compound: `COc1cc(/C=C2\CCCc3c2nc2ccccc2c3C(=O)O)cc(OC)c1O`
30.3

Provide inhibition value for the following compound: `Cc1cc(C)c2nncn2n1`
11.8

###

biological target: Large T antigen (Simian virus 40) (UniProt P03070); assay: SV40 large T antigen inhibitors, biochemical (AID 1903); details: SV40 large T antigen ATPase/helicase inhibition assay; at 20 µM; active compounds read high
In all, about 310,000 compounds went through this assay and about 1,200 (0.39%) were called active. Only a sample is shown. Potency and affinity values are given separately.
# cutoff 5% applies to inhibition; >= gives 1 (yes), < gives 0 (no)

Dear colleague, could you confirm whether `O=C(Oc1coc(CSc2ncccn2)cc1=O)c1ccccc1[N+](=O)[O-]` has inhibition at or above 5%?
1 (yes)

Dear colleague, could you confirm whether `NNC(=O)C(=O)Nc1ccc(Cl)c(Cl)c1` has inhibition at or above 5%?
0 (no)

Dear colleague, could you confirm whether `Cc1c(C(=O)/C=C/N(C)C)nnn1-c1ccc(F)c(Cl)c1` has inhibition at or above 5%?
1 (yes)

Dear colleague, could you confirm whether O=C1[C@@H]2Cc3c([nH]c4ccccc34)C(c3ccccc3)N2C(=O)CN1CCO (some centres not stated) has inhibition at or above 5%?
1 (yes)

Dear colleague, could you confirm whether COc1cc(/C=C/C(=O)OCC(=O)NC2CCS(=O)(=O)C2)ccc1O (configuration not stated) has inhibition at or above 5%?
1 (yes)

Dear colleague, could you confirm whether `COc1cnc(-c2ccccn2)nc1Oc1cccc(Cl)c1` has inhibition at or above 5%?
1 (yes)

Dear colleague, could you confirm whether `Cn1c(=O)c2ccccc2n2c(=S)[nH]nc12` has inhibition at or above 5%?
0 (no)

Dear colleague, could you confirm whether `CN(C)CCCN(C(=O)c1ccco1)c1nc2ccc(F)cc2s1` has inhibition at or above 5%?
1 (yes)

Dear colleague, could you confirm whether `Cc1c(NS(=O)(=O)c2ccc(Br)s2)c(=O)n(-c2ccccc2)n1C` has inhibition at or above 5%?
0 (no)

Dear colleague, could you confirm whether `Cc1cc(C(C)C)n2c(nc3ccccc32)c1C#N` has inhibition at or above 5%?
0 (no)

Dear colleague, could you confirm whether `Cc1ccc(NC(=O)C(=O)NN)cc1` has inhibition at or above 5%?
0 (no)

Dear colleague, could you confirm whether `COc1ccc(N/C(C)=C/C(=O)c2ccccc2)cc1` has inhibition at or above 5%?
1 (yes)

###

target: Large T antigen (Simian virus 40) (UniProt P03070); experiment: SV40 large T antigen inhibitors, biochemical (AID 1903); settings: SV40 large T antigen ATPase/helicase inhibition assay; at 20 µM; active compounds read high
About 1,200 (0.39%) of roughly 310,000 compounds were called active. These entries were drawn from the full list. Results with a measured potency or affinity are listed apart.
I'd appreciate it if you could supply inhibition values for the items below.
Just the number in %, nothing appended.

Provide inhibition value for the following compound: `C=CCN(c1ccccc1Cl)S(=O)(=O)c1cccc(C(=O)NCCc2ccc(OC)cc2)c1`
5.14

Provide inhibition value for the following compound: `COc1cc(/C=C/[N+](=O)[O-])ccc1OC(=O)/C=C/c1ccc(F)cc1`
17.2

Provide inhibition value for the following compound: `N#C/C(=C\c1ccncc1)c1nc2ccccc2[nH]1`
-51.6

Provide inhibition value for the following compound: `CC1=NN(c2ccc(Cl)c(C(=O)O)c2)C(=O)C1`
27.9

Provide inhibition value for the following compound: `CCOC(=O)c1ccccc1NC(=S)N1CCN(C2CCCCC2)CC1`
7.91

Provide inhibition value for the following compound: CCN1C(=O)CC(N2CCC(Nc3ccc(F)cc3)CC2)C1=O (stereo unspecified)
0.22

Provide inhibition value for the following compound: `Cc1ccc(S(=O)(=O)c2c(C)nn(-c3ccccc3)c2OC(=O)c2ccc(Br)o2)cc1`
6.66

Provide inhibition value for the following compound: `C#CCOCCOCCOCCNc1nc(N2CCN(C(=O)[C@H]([C@@H](C)CC)n3cc([C@@H](N)CC(C)C)nn3)CC2)nc(N2CCN(C(=O)[C@H]([C@@H](C)CC)n3cc([C@@H](N)CC(C)C)nn3)CC2)n1`
3.81

Provide inhibition value for the following compound: `O=C(O)c1cccc2c1C(=O)c1ccccc1C2=O`
2.63

Provide inhibition value for the following compound: COc1ccc2nc(N3C(=O)CC(Cc4cc(C)cc(C)c4)C3=O)sc2c1 (stereo unspecified)
-1.29

Provide inhibition value for the following compound: `COc1ccc(NC(=O)/C=C/c2ccc(OC(F)F)cc2)cn1`
9.9

Provide inhibition value for the following compound: `O=C(/C=C/c1ccco1)Nc1cc(Cl)ccc1C(=O)O`
21.9

Provide inhibition value for the following compound: CC(OC(=O)c1ccc(NS(=O)(=O)c2cccs2)cc1)C(=O)N(C)C1CCCCC1 (stereo unspecified)
12.6

Provide inhibition value for the following compound: `Nc1nnnn1CC(=O)N/N=C/C=C/c1ccccc1`
13.8

Provide inhibition value for the following compound: `CCOc1ccccc1NC(=O)COC(=O)CSc1ccc(Cl)cc1`
-3.03

Provide inhibition value for the following compound: `CC(C)Cn1c(=O)c(C(=O)NCc2ccc3c(c2)OCO3)c(O)c2ccccc21`
-14.6

Provide inhibition value for the following compound: `CCn1cc(CNC(=O)c2cc(-c3ccccc3OC)nc3ccccc23)c(C)n1`
4.15

Provide inhibition value for the following compound: `Cc1ccc2nc(/C(C#N)=C/c3ccc(O)c(O)c3)[nH]c2c1`
36.8

Provide inhibition value for the following compound: `Nc1c(C(=O)O)ccc2c1C(=O)c1ccccc1C2=O`
6.68

Provide inhibition value for the following compound: `CC1=NN(c2ccc(C(=O)OC(C)C)cc2)C(=O)/C1=C\C=C\c1ccco1`
12.7

Provide inhibition value for the following compound: `CC1=NN(c2ccccc2)C(=O)/C1=C/C=C/c1ccccc1`
9.74
